Data origin: the supplement of paper PMC10065799

system: c-Abl (mouse); test: phosphorylation enrichment, bacterial display (enrichment ratio); higher = better substrate or ligand; peptides without Tyr show the background;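 note: 11-residue human phosphosite peptides and single-mutation variants displayed on the E. coli surface, counted by deep sequencing, each peptide's frequency after selection divided by its frequency in the unselected input library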;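 note: frequency after pTyr selection over input frequency; kinase dosed for 20-30% of maximal phosphorylation in three min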
Tick Met if phosphorylation enrichment is 0.8 or greater. Tick Not met if phosphorylation enrichment is less than 0.8.

{"biosequence": "MSSAGYRAAEG [COL6A3_Y543_T538M]", "labelValue": "Not met"}
{"biosequence": "SVTCTYSLALN [TP53_Y126_P128L]", "labelValue": "Met"}
{"biosequence": "RHPYFFAPELL [ALB_Y174_Y174F]", "labelValue": "Met"}
{"biosequence": "RLLVFYPWTQR [HBB_Y36_V35F]", "labelValue": "Met"}
{"biosequence": "MTFMFYRENLR [NLRP14_Y443_V441M_YF]", "labelValue": "Met"}
{"biosequence": "FKDGQYWIRGQ [ACSF3_Y466_R471Q]", "labelValue": "Not met"}
{"biosequence": "PQGVRYTYTID [DCX_Y103_I104T]", "labelValue": "Not met"}
{"biosequence": "QLDQRYLLVPE [DDX49_Y223]", "labelValue": "Not met"}
{"biosequence": "PFSEPYADFGG [APBA1_Y187_YF]", "labelValue": "Met"}
{"biosequence": "TSEASYFKSLN [NGEF_Y288_YF]", "labelValue": "Not met"}
{"biosequence": "TALFIYIRPKA [OR10C1_Y258]", "labelValue": "Not met"}
{"biosequence": "HHTDECEYDEL [TGM1_Y134_Y134C]", "labelValue": "Met"}
{"biosequence": "TLSGIYQFNIA [FOXL2_Y81_I84N_YF]", "labelValue": "Not met"}

###

target: Fes (UniProt P07332); test: phosphorylation enrichment, bacterial display (enrichment ratio); higher = better substrate or ligand; peptides without Tyr show the background
Sequence (P07332 whole entry, looked up): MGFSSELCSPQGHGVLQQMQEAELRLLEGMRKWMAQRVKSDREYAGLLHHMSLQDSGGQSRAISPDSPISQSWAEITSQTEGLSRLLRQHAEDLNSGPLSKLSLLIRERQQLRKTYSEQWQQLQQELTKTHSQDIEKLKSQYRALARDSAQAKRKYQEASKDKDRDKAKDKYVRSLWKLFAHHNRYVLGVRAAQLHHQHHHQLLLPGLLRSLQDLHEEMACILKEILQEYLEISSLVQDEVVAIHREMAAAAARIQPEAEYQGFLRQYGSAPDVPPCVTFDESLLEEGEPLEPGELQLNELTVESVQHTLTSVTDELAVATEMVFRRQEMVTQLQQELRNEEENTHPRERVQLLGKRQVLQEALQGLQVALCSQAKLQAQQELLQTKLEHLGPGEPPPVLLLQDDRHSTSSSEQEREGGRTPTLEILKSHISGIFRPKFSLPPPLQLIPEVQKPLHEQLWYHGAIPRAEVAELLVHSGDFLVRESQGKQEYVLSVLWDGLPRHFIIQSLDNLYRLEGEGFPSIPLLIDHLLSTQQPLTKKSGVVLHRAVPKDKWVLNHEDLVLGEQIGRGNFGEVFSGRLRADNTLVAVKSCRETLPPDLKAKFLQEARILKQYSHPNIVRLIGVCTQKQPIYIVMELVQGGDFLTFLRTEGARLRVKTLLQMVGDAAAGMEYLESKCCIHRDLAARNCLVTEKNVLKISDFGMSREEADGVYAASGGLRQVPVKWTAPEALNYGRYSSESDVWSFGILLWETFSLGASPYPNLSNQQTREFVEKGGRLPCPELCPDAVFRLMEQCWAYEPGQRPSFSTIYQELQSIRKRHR
Rule: phosphorylation enrichment under 1 gives False, otherwise True.

{"biosequence": "DEGVNHFMSKG [FBXO8_Y156_Y156H]", "labelValue": "False"}
{"biosequence": "FADIAYNFRDG [PAH_Y166_H170D_YF]", "labelValue": "False"}
{"biosequence": "SNFRAYATEPQ [TNNI3_Y29_H34Q_YF]", "labelValue": "False"}
{"biosequence": "TVEDHDFEGGI [TKT_Y563_Y563D_YF]", "labelValue": "True"}
{"biosequence": "KDGNGYISVAE [CALM3_Y100_A103V]", "labelValue": "False"}
{"biosequence": "GCRSKYVGLWR [KCNQ1_Y184_G189R]", "labelValue": "False"}
{"biosequence": "ESAAIYNPVIY [RHO_Y301_K296E]", "labelValue": "True"}
{"biosequence": "RLLVVYPSTQR [HBB_Y36_W38S]", "labelValue": "True"}
{"biosequence": "IRTGIYHGGEP [PIK3CA_Y361_V356I]", "labelValue": "False"}
{"biosequence": "SEKVVYRRFTE [NCF1_Y41]", "labelValue": "False"}
{"biosequence": "ERPGVHTNVVE [F11_Y608_Y608H]", "labelValue": "False"}
{"biosequence": "TRSYKYLLLSM [NF1_Y491]", "labelValue": "False"}
{"biosequence": "CTTIHYNFMWN [TP53_Y234_C238W_YF]", "labelValue": "True"}
{"biosequence": "NLNGKCNKPRA [ANGPTL3_Y417_Y417C]", "labelValue": "False"}
{"biosequence": "PEFINYHQHNS [BTK_Y361_L358F]", "labelValue": "False"}
{"biosequence": "TLPAFYMENFS [GLB1_Y552_G554E]", "labelValue": "True"}
{"biosequence": "EKKKFYDAKIE [CASP5_Y104_T106A_YF]", "labelValue": "False"}
{"biosequence": "NEKNIYRVPLM [BMPR2_Y247]", "labelValue": "False"}
{"biosequence": "KKCTRYIDCDL [ASPA_Y64]", "labelValue": "False"}
{"biosequence": "DVQNAYDSNHC [ZFYVE16_Y36]", "labelValue": "False"}
{"biosequence": "LRTAVYHEILI [CREBBP_Y1450]", "labelValue": "True"}
{"biosequence": "FVFSFYHAFSG [ACTN4_Y265_S262F_YF]", "labelValue": "True"}
{"biosequence": "LDTIQYSKHPP [SQSTM1_Y433]", "labelValue": "True"}
{"biosequence": "FQCKHYACIRQ [TIMP3_Y182_S179C_YF]", "labelValue": "False"}
{"biosequence": "ANYTEYVATSW [CDKL5_Y171_R175S]", "labelValue": "False"}
{"biosequence": "HILFRYPKEFQ [IDS_Y234_P231L]", "labelValue": "True"}
{"biosequence": "RALRHYFKLNI [ETV6_Y401_YF]", "labelValue": "False"}
{"biosequence": "IPGGIYNADLN [CST4_Y35_D36N]", "labelValue": "False"}
{"biosequence": "IGNGYYFHVFS [MYBPC3_Y1136_R1138H]", "labelValue": "True"}
